Hey, just so you know, these numbers are from patent US20220229058A1.

- study_target: norovirus GII.3 TCH strain virus-like particle (VLP) (norovirus GII.3 TCH strain)
- run_description: BLI (BLItz), biotinylated peptide on SA chip, VLP in solution
Where no end group is shown, it is not given here.
With a cut-off of 0.02 s⁻¹, any koff strictly below it is called MET; any koff meeting it or above is called NOT MET.

binder	class_name
KYRATICHTV (also: biotinylated, residue not given here, spacer sequence added, letters and position not given here) [norovirus-binding peptide of SEQ ID NO: 52]	MET
NFRVPIRFTH (also: biotinylated, residue not given here, spacer sequence added, letters and position not given here) [norovirus-binding peptide of SEQ ID NO: 131]	NOT MET
ECMGRRWMSS (also: biotinylated, residue not given here, spacer sequence added, letters and position not given here) [norovirus-binding peptide of SEQ ID NO: 154]	MET
YRRSKSEIFV (also: biotinylated, residue not given here, spacer sequence added, letters and position not given here) [norovirus-binding peptide of SEQ ID NO: 59]	MET
ICSSWFPSVH (also: biotinylated, residue not given here, spacer sequence added, letters and position not given here) [norovirus-binding peptide of SEQ ID NO: 48]	NOT MET
YVVASKSNRL (also: biotinylated, residue not given here, spacer sequence added, letters and position not given here) [norovirus-binding peptide of SEQ ID NO: 143]	MET
